Give measured Papp for each item. Keep answers brief.
# protocol-details: in vitro
# measurement-context: human, Caco-2, Caco-2 (cm/sec)
Where a SMILES comes first, the peptide text is derived from it. Bridges are numbered along the chain shown (N, C = ends). [ ]: non-standard residue; d: D form. The star is where a group is joined. dhPhe(4-CONHMe,3-OMe) = CNC(=O)c1ccc(CC[C@@H](N)C(=O)O)cc1OC; Phe(4-COOH) = N[C@@H](Cc1ccc(C(=O)O)cc1)C(=O)O; NMeF = CN[C@@H](Cc1ccccc1)C(=O)O; NMeL = CN[C@@H](CC(C)C)C(=O)O; NMeV = CN[C@H](C(=O)O)C(C)C; NMeAbu = CC[C@H](NC)C(=O)O; Piperidide = C1CCN(*)CC1; NBuGly = CCCCNCC(=O)O; N(OH)Me = CN(O)*; Sar = CNCC(=O)O; tBu = CC(C)(C)*
// note: answer is a bare numeric in ×10⁻⁶ cm/s

Give its Papp value. Item: CC(C)C[C@@H]1NC(=O)[C@H](CC(C)C)N(C)C(=O)C[C@@H](C(=O)N2CCCCC2)NC(=O)[C@H](CC(C)C)N(C)C(=O)CN(C)C(=O)[C@H]([C@@H](C)O)NC(=O)[C@H](C(C)C)N(C)C(=O)[C@H](CC(C)C)N(C)C(=O)[C@H](Cc2ccc(C(=O)N(C)O)cc2)NC(=O)[C@H](CC(C)C)N(C)C(=O)[C@H](CC(C)C)N(C)C1=O [AP253] ([NMeL]L[NMeL][NMeL][Phe(4-COOH)](N(OH)Me)[NMeL][NMeV]T[Sar][NMeL]D-Piperidide; lactam N-11)
0.12

Follow-up item: CCCCN1CC(=O)N(C)[C@@H](CC(C)C)C(=O)N[C@@H](COC(C)(C)C)C(=O)N(C)[C@@H](CC(C)C)C(=O)N(C)[C@@H](CC)C(=O)N[C@H](C(=O)N2CCCCC2)CC(=O)N[C@H](CC(C)C)C(=O)N(C)[C@@H](Cc2ccccc2)C(=O)N[C@H](CCc2ccc(C(=O)NC)c(OC)c2)C(=O)N(C)[C@@H](CC(C)C)C(=O)N[C@@H]([C@@H](C)O)C1=O [AP209] ([dL][NMeF][dhPhe(4-CONHMe,3-OMe)][NMeL]T[NBuGly][NMeL]S(tBu)[NMeL][NMeAbu]D-Piperidide; lactam N-11)
0.56

----------
# protocol-details: in vitro
# measurement-context: human, Caco-2, Caco-2 (membrane permeability)
*1 amine or outer side, *2 acyl side, *3 side chain or, on linkers, in order; H or OH if unused. Where a SMILES comes first, the peptide text is derived from it. Bridges are numbered along the chain shown (N, C = ends). [ ]: non-standard residue; d: D form. The star is where a group is joined. NMePhe(3-Cl) = CN[C@@H](Cc1cccc(Cl)c1)C(=O)O; X12 = O=C([C@H](CCCC(O)C(F)(F)F)N[*:1])[*:2]; NMehPhe = CN[C@@H](CCc1ccccc1)C(=O)O; NMeF = CN[C@@H](Cc1ccccc1)C(=O)O; NMeGABA = CN(CCCC(=O)[*:2])[*:1]; NMeI = CC[C@H](C)[C@H](NC)C(=O)O; CH2CH(OH)CF3 = OC(C*)C(F)(F)F; NMeL = CN[C@@H](CC(C)C)C(=O)O; NMeV = CN[C@H](C(=O)O)C(C)C; Piperidide = C1CCN(*)CC1; CH2CONHMe = CNC(=O)C*; NBuGly = CCCCNCC(=O)O; NPrGly = CCCNCC(=O)O; Sar = CNCC(=O)O; tBu = CC(C)(C)*
Kindly return yes if reported Papp is no lower than 0.5 ×10⁻⁶ cm/s; return no if it is lower.

Identify whether the reported Papp of the following molecule is 0.5 ×10⁻⁶ cm/s or greater: CC[C@H](C)[C@H]1C(=O)N[C@@H]([C@@H](C)O)C(=O)N(C)CC(=O)N(C)[C@@H](CC(C)C)C(=O)N[C@H](C(=O)N2CCCCC2)CC(=O)N(C)[C@@H](C(C)C)C(=O)N[C@@H](COCC(O)C(F)(F)F)C(=O)N(C)[C@@H](CC(C)C)C(=O)N(C)[C@@H](Cc2ccccc2)C(=O)N[C@@H](CC(C)C)C(=O)N(C)[C@@H](Cc2ccccc2)C(=O)N1C (stereo partly drawn) [Compound C08] ([NMeV]S(CH2CH(OH)CF3)[NMeL][NMeF]L[NMeF][NMeI]T[Sar][NMeL]D-Piperidide; lactam N-11)
yes

Follow-up item: CC[C@H](C)[C@H]1C(=O)N[C@@H]([C@@H](C)O)C(=O)N(C)CC(=O)N(C)[C@@H](CC(C)C)C(=O)N[C@H](C(=O)N2CCCCC2)CC(=O)N(C)[C@@H](C(C)C)C(=O)N[C@@H](CC(C)C)C(=O)N(C)[C@@H](CC(C)C)C(=O)N(C)[C@@H](Cc2ccccc2)C(=O)N[C@@H](CCCC(O)C(F)(F)F)C(=O)N(C)[C@@H](Cc2ccccc2)C(=O)N1C (stereo partly drawn) [Compound D05] ([NMeV]L[NMeL][NMeF][X12][NMeF][NMeI]T[Sar][NMeL]D-Piperidide; lactam N-11)
no

Follow-up item: CC(C)C[C@H]1C(=O)N[C@@H](COCC(O)C(F)(F)F)C(=O)N(C)[C@@H](Cc2cccc(Cl)c2)C(=O)N(C)[C@@H](Cc2ccccc2)C(=O)N[C@@H](COC(C)(C)C)C(=O)N(C)[C@@H](CC(C)C)C(=O)N[C@@H]([C@@H](C)O)C(=O)N(C)[C@@H](CC(C)C)C(=O)N(C)[C@@H](CC(C)C)C(=O)N[C@H](C(=O)N2CCCCC2)CC(=O)N(C)CCCC(=O)N1C (stereo partly drawn) [Compound C02] ([NMeGABA][NMeL]S(CH2CH(OH)CF3)[NMePhe(3-Cl)][NMeF]S(tBu)[NMeL]T[NMeL][NMeL]D-Piperidide; lactam N-11)
no

Follow-up item: CCCCN1CC(=O)N(C)[C@@H](Cc2ccccc2)C(=O)N(C)[C@@H](CC(C)C)C(=O)N[C@@H](COC(C)(C)C)C(=O)N(C)[C@@H](CC(C)C)C(=O)N[C@H](C(=O)N2CCCCC2)CC(=O)N(C)CC(=O)N(C)[C@@H](Cc2cccc(Cl)c2)C(=O)N[C@@H](COCC(O)C(F)(F)F)C(=O)N(C)[C@@H](CC(C)C)C(=O)N[C@@H]([C@@H](C)O)C1=O (stereo partly drawn) [Compound C06] ([Sar][NMePhe(3-Cl)]S(CH2CH(OH)CF3)[NMeL]T[NBuGly][NMeF][NMeL]S(tBu)[NMeL]D-Piperidide; lactam N-11)
no

Follow-up item: CCCN1CC(=O)N(C)[C@@H](CC(C)C)C(=O)N[C@H](C(=O)N2CCCCC2)CC(=O)N(C)[C@@H](CC(C)C)C(=O)N[C@@H](Cc2ccccc2)C(=O)N(C)[C@@H](CC(C)C)C(=O)N(C)[C@@H](CC(C)C)C(=O)N[C@@H](COCC(=O)NC)C(=O)N(C)[C@@H](CCc2ccccc2)C(=O)N(C)[C@@H](CC(C)C)C(=O)N[C@@H]([C@@H](C)O)C1=O [Compound I04] ([NMeL]F[NMeL][NMeL]S(CH2CONHMe)[NMehPhe][NMeL]T[NPrGly][NMeL]D-Piperidide; lactam N-11)
yes

Follow-up item: CCCCN1CC(=O)N(C)[C@@H](CC(C)C)C(=O)N[C@@H](CCCC(O)C(F)(F)F)C(=O)N(C)[C@@H](Cc2ccccc2)C(=O)N(C)[C@@H](C(C)C)C(=O)N[C@H](C(=O)N2CCCCC2)CC(=O)N[C@H](C(C)C)C(=O)N(C)[C@@H](Cc2ccccc2)C(=O)N[C@@H](CC(C)C)C(=O)N(C)[C@@H](CC(C)C)C(=O)N[C@@H]([C@@H](C)O)C1=O (stereo partly drawn) [Compound D09] ([dV][NMeF]L[NMeL]T[NBuGly][NMeL][X12][NMeF][NMeV]D-Piperidide; lactam N-11)
no

----------
# protocol-details: Membrane permeability test of cyclic peptides (Caco-2, modified/improved method of WO 2018/124162)
# measurement-context: human, Caco-2, Caco-2 (cm/sec), membrane permeability of cyclic peptides, Caco-2
*1 amine or outer side, *2 acyl side, *3 side chain or, on linkers, in order; H or OH if unused. Where a SMILES comes first, the peptide text is derived from it. Bridges are numbered along the chain shown (N, C = ends). [ ]: non-standard residue; d: D form. The star is where a group is joined. ξ: configuration not given here. CH2(1,2,4-oxadiazolon-3-yl) = O=c1[nH]c(C*)no1; NMeF = CN[C@@H](Cc1ccccc1)C(=O)O; NMeGABA = CN(CCCC(=O)[*:2])[*:1]; NMeL = CN[C@@H](CC(C)C)C(=O)O; Propyl(2R-OH) = C[C@@H](O)C*; Piperidide = C1CCN(*)CC1; NBuGly = CCCCNCC(=O)O; ξS = NC(CO)C(=O)O; tBu = CC(C)(C)*
Give measured Papp for each item. Keep answers brief.
// note: answer is a bare numeric in ×10⁻⁶ cm/s

Give its Papp value. Item: CCCCN1CC(=O)N(C)[C@@H](CC(C)C)C(=O)NC(COCc2noc(=O)[nH]2)C(=O)N(C)[C@@H](CC(C)C)C(=O)N(C)[C@@H](CC(C)C)C(=O)N[C@H](C(=O)N2CCCCC2)CC(=O)N[C@H](C(C)C)C(=O)N(C)[C@@H](Cc2ccccc2)C(=O)N[C@@H](CC(C)C)C(=O)N(C)[C@@H](CC(C)C)C(=O)N[C@@H]([C@@H](C)O)C1=O (stereo partly drawn) [AP43] ([dV][NMeF]L[NMeL]T[NBuGly][NMeL][ξS](CH2(1,2,4-oxadiazolon-3-yl))[NMeL][NMeL]D-Piperidide; lactam N-11)
0.82

Follow-up item: CC[C@H](C)[C@@H]1NC(=O)[C@H](CC(C)C)N(C)C(=O)[C@H](COC(C)(C)C)NC(=O)[C@H](Cc2ccccc2)N(C)C(=O)[C@H](Cc2ccccc2)N(C)C(=O)[C@H](COC[C@@H](C)O)NC(=O)[C@H](CC(C)C)N(C)C(=O)CCCN(C)C(=O)C[C@@H](C(=O)N2CCCCC2)NC(=O)[C@H](CC(C)C)N(C)C(=O)[C@H](CC(C)C)N(C)C1=O [AP84] ([NMeGABA][NMeL]S(Propyl(2R-OH))[NMeF][NMeF]S(tBu)[NMeL]I[NMeL][NMeL]D-Piperidide; lactam N-11)
0.58
